Molecular target: human melanocortin-4 receptor (MC-4R) (Homo sapiens, UniProt P32245)
Construct: expressed in transfected cells; host or cells: HEK293
Sequence (P32245 whole entry): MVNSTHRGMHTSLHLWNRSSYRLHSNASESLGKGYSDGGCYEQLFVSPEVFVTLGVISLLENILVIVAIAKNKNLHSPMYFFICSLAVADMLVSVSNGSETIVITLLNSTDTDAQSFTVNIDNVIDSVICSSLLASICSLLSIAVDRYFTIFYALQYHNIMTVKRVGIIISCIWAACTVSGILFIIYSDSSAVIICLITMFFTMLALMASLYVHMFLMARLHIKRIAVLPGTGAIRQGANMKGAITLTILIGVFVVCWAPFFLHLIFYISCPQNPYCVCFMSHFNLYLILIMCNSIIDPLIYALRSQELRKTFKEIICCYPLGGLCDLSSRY
Test: Functional assay: agonistic activity, cAMP production in membrane preparations compared with NDP-alpha-MSH, fluorescence polarization
Format: biochemical
Conditions: cAMP produced compared to stimulation with NDP-alpha-MSH; read-out: % activation functional assay
MEASURED PROPERTY: Emax

Data request: Give its Emax value. Item: CN1CCN(Cc2cc(F)cnc2C2CCN(C(=O)[C@@H](Cc3ccc(Cl)cc3Cl)NC(=O)N3CC(O)C3)CC2)CC1
Data returned: 2%

Data request: Item O=C(N[C@H](Cc1ccc(Cl)cc1Cl)C(=O)N1CCC(c2cccnc2OCCN2CCCC2)CC1)N1CCCC1 has what recorded Emax?
Data returned: 0%

Data request: Using the record for CN1CCC[C@H](Oc2cccnc2C2CCN(C(=O)[C@@H](Cc3ccc(Cl)cc3Cl)NC(=O)N3CCCC3)CC2)C1 , report its Emax.
Data returned: 0%

Data request: Any idea what its Emax is? The compound is O=C(N[C@H](Cc1ccc(Cl)cc1Cl)C(=O)N1CCC(c2cccnc2O[C@H]2CN3CCC2CC3)CC1)N1CCCC1
Data returned: 0%

Data request: Using the record for CC[C@H](COc1cccnc1C1CCN(C(=O)[C@@H](Cc2ccc(Cl)cc2Cl)NC(=O)N2CCCC(C)(O)C2)CC1)N(C)C (stereo partly shown) , report its Emax.
Data returned: -8%

Data request: GET /values?readout=Emax&item= CC[C@H](COc1cccnc1C1CCN(C(=O)[C@@H](Cc2ccc(Cl)cc2Cl)NC(=O)N2CC[C@H](O)C2)CC1)N(C)C
Data returned: -9%

Data request: Which measured Emax value corresponds to CC[C@H](COc1cc(OC)cnc1C1CCN(C(=O)[C@@H](Cc2ccc(Cl)cc2Cl)NC(=O)N2CCCC2)CC1)N(C)C ?
Data returned: 8%
